All values here come from patent US20200283507A1.

target: T1, Hu/NoV/GII.4/MD145-12/1997/U.S. VLP (human norovirus GII.4); test: blockade ELISA: VLP binding to saliva Ly+
T1 construct: mature; baculovirus VLP; VP2 may be present
quantity.measured: EC50 (µg/mL)
Field: numeric (µg/mL). Do not append units.

# lookup: EC50 of VHH 3.2 (VHH, llama VHH, MD2004 library; pHEN6, C-terminal His6 tag; also called clone 3.2) VHH: QVQLQESGGGLVQPGGSLRLSCAASESTPSINTMGWYRQAPGKERELVATITSGGMTNYADSVKGRFTISRDNGKNTVYLQMNSLEPGDTAVYYCNLKRRDLQARFGGYWGQGTQVTVSS 0.917

# lookup: EC50 of VHH 19 (VHH, MD2004 library, subtractive biopanning; His6 tag; also called 19.1; clone 19) VHH: QVKLQQSGGGLVQPGGSLRLSCAASGFTFRNYAMSWVRQAPGKGLEWVSAIAAGGAVTKYADSVKGRFTISRDNARDTLYLQMNSLKPEDTAVYYCAKPRDFWYSPEFDFRGQGTQVTVSS 1.3

# lookup: EC50 of VHH 1 (VHH, llama VHH, MD2004 (GII.4) library; pHEN6, C-terminal His6 tag; also called 1.1; clone 1) VHH: QVQLQQSGGGLVQAGGSLRLSCAASGLAFSSYAITWLRQAPGTEREFVALISGSGSSTYYADSVKGRFTISRNNAKNTVYLQMNSLKPEDTAVYYCTASEFLLHPPPPNQKYDYWGQGTQVTVSS 2.01

# lookup: EC50 of VHH 5.4 (VHH, llama VHH, MD2004 library; pHEN6, C-terminal His6 tag; also called clone 5.4) VHH: QVQLQQSGGGLVQPGGSLRLSCVASESTVSINIMGWYRQAPGKQRELVATITTGGTTNYADSVKGRFTISRDNAKNTVYLQMNSLEPEDTAVYYCNLKRRDLQARFGGYWGQGTQVTVSS 1.27

# lookup: EC50 of VHH 4.1 (VHH, llama VHH, MD2004 library; pHEN6, C-terminal His6 tag; also called clone 4.1) VHH: QVKLQQSGGGLVQPGGSLRLSCAASESTISINTLGWYRQAPGNQRELVATITTGGTTNYADSVKGRFTISRDNAKNTVYLQMNNLEPGDTAVYYCNLKRRDLQSRFGGYWGQGTQVTVSS 1.38
